target: HIS-TGFβR1 T204D (Homo sapiens (Human), UniProt P36897, T204D); assay: TGFβR1 HIS T204D HTRF assay (labeled small molecule probe, anti-HIS detection antibody); settings: 1 nM HIS-TGFβR1 T204D, probe at Kd, 1 hour at room temperature, eleven concentrations
Sequence (P36897 34-503 T204D): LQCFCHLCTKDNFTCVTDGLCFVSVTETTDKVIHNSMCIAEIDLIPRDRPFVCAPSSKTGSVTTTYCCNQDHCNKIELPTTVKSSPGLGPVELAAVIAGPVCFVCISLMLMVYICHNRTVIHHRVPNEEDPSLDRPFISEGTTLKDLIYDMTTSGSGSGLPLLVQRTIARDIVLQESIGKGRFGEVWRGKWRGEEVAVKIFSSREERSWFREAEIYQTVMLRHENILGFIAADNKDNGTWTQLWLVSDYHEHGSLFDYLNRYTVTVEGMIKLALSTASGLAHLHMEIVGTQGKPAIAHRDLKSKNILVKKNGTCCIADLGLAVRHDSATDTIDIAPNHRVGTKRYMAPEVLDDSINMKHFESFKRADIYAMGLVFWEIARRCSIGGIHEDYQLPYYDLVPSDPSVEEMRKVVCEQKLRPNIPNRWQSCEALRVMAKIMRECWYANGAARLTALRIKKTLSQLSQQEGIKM
Assign labels as follows, please: 1 for IC50 below 0.8 nM; 0 for IC50 equal to or exceeding 0.8 nM.

Query block: # TODO verify IC50 < 0.8 nM strictly for this molecule: O=C(CN1CCOCC1)Nc1cc(Nc2nc(-c3cccc(C(F)(F)F)n3)nc3[nH]ccc23)ccn1 [Example 32]
Result block: 1

Query block: Repeat with CC(C)CC(=O)Nc1cc(Nc2nc(-c3cccc(C(F)(F)F)n3)nc3[nH]ccc23)ccn1 [Example 27]
Result block: 0

Query block: Repeat with CN1CCN(CC(=O)Nc2cc(Nc3nc(-c4cccc(C(F)(F)F)n4)nc4[nH]ccc34)ccn2)CC1 [Example 5]
Result block: 1

Query block: Repeat with COc1cnccc1Nc1nc(-c2cccc(C(F)(F)F)n2)nc2[nH]ccc12 [Example 42]
Result block: 0

Query block: Repeat with Cc1cnccc1Nc1nc(-c2ccc(F)c(C)n2)nc2[nH]ccc12 [Example 45]
Result block: 0

Query block: Repeat with CN(c1ccncc1)c1nc(-c2cccc(C(F)(F)F)n2)nc2[nH]ccc12 [Example 38]
Result block: 1

Query block: Repeat with CN1CCN(Cc2c[nH]c3nc(-c4cccc(C(F)F)n4)nc(Nc4ccncc4F)c23)CC1 [Example 7]
Result block: 0

Query block: Repeat with FC(F)c1cccc(-c2nc(Nc3ccnc(Cl)n3)c3cc[nH]c3n2)n1 [Example 15]
Result block: 0

Query block: Repeat with CS(=O)(=O)Nc1cc(Nc2nc(-c3cccc(C(F)(F)F)n3)nc3[nH]ccc23)ccn1 [Example 28]
Result block: 0

Query block: Repeat with CC(=O)Nc1cc(Nc2nc(-c3ccccn3)nc3[nH]ccc23)ccn1 [Example 21]
Result block: 0

Query block: Repeat with Cc1c[nH]c2nc(-c3cccc(C(F)F)n3)nc(Nc3ccncc3F)c12 [Example 6]
Result block: 1

Query block: Repeat with FC(F)(F)c1cccc(-c2nc(Nc3ccncc3C(F)(F)F)c3cc[nH]c3n2)n1 [Example 39]
Result block: 1

Query block: Repeat with Fc1cnccc1Nc1nc(-c2cccc(C(F)F)n2)nc2[nH]ccc12 [Example 2]
Result block: 1

Query block: Repeat with CN(c1ccncc1)c1nc(-c2cccc(NS(C)(=O)=O)n2)nc2[nH]ccc12 [Example 48]
Result block: 0

Query block: Repeat with CC(=O)Nc1cc(Nc2nc(-c3ccc(C(F)(F)F)cn3)nc3[nH]ccc23)ccn1 [Example 23]
Result block: 0

Query block: Repeat with Fc1ccc(-c2nc(Nc3ccncc3F)c3cc[nH]c3n2)nc1 [Example 14]
Result block: 0

---

molecular target: HIS-TGFβR1 T204D (Homo sapiens (Human), UniProt P36897, T204D); assay: TGFβR1 HIS T204D HTRF assay (labeled small molecule probe, anti-HIS detection antibody); type: binding; conditions: 1 nM HIS-TGFβR1 T204D, probe at Kd, 1 hour at room temperature, eleven concentrations
Readout label: pIC50
The meaning of pIC50 here: minus log10 of the concentration in molar units.

Query block: Item Cc1nc(-c2nc(Nc3ccnc(NC(=O)C4CC4)c3)c3cc[nH]c3n2)ccc1F [Example 47] has what recorded pIC50?
Result block: 8.85

Query block: Repeat with O=C(Nc1cc(Nc2nc(-c3cccc(C(F)(F)F)n3)nc3[nH]ccc23)ccn1)C1CC1 [Example 41]
Result block: 9.06

Query block: Repeat with Fc1cnccc1Nc1nc(-c2ccccn2)nc2[nH]ccc12 [Example 8]
Result block: 9.59

Query block: Repeat with CC(=O)Nc1cc(Nc2nc(-c3cccc(C(F)F)n3)nc3[nH]ccc23)c(F)cn1 [Example 16]
Result block: 9.15

Query block: Repeat with Cc1nc(-c2nc(Nc3cc(Cl)ncc3F)c3cc[nH]c3n2)ccc1F [Example 13]
Result block: 8.40

Query block: Repeat with c1ccc(-c2nc(-n3ccc4cnccc43)c3cc[nH]c3n2)nc1 [Example 9]
Result block: 8.92

Query block: Repeat with CCC(=O)Nc1cc(Nc2nc(-c3cccc(C(F)(F)F)n3)nc3[nH]ccc23)ccn1 [Example 24]
Result block: 9.13

Query block: Repeat with CS(=O)(=O)Nc1cccc(-c2nc(Nc3ccncc3Cl)c3cc[nH]c3n2)n1 [Example 49]
Result block: 8.66

Query block: Repeat with CC(=O)Nc1cc(Nc2nc(-c3cccc(C(F)F)n3)nc3[nH]cc(CNCC(C)(C)O)c23)c(F)cn1 [Example 44]
Result block: 8.59

Query block: Repeat with FC(F)c1cccc(-c2nc(-n3ccc4cnccc43)c3cc[nH]c3n2)n1 [Example 12]
Result block: 9.19

Query block: Repeat with FC(F)(F)c1cccc(-c2nc(Nc3ccncc3Cl)c3cc[nH]c3n2)n1 [Example 40]
Result block: 9.22

Query block: Repeat with Cc1cccc(-c2nc(Nc3ccncc3F)c3c(C)c[nH]c3n2)n1 [Example 33]
Result block: 9.60

Query block: Repeat with O=C(CN1CCCC1)Nc1cc(Nc2nc(-c3cccc(C(F)(F)F)n3)nc3[nH]ccc23)ccn1 [Example 4]
Result block: 9.38

Query block: Repeat with Cc1c[nH]c2nc(-c3cccc(C(F)(F)F)n3)nc(Nc3ccncc3F)c12 [Example 34]
Result block: 8.35

Query block: Repeat with CC(=O)Nc1cc(Nc2nc(-c3ccc(F)c(C)n3)nc3[nH]ccc23)ccn1 [Example 29]
Result block: 9.11

Query block: Repeat with Cc1cnccc1Nc1nc(-c2cccc(C(F)(F)F)n2)nc2[nH]ccc12 [Example 37]
Result block: 9.06

Query block: Repeat with COc1cnccc1Nc1nc(-c2ccc(F)c(C)n2)nc2[nH]ccc12 [Example 46]
Result block: 9.10

---

biological target: HIS-TGFβR1 T204D (Homo sapiens (Human), UniProt P36897, T204D); assay: TGFβR1 HIS T204D HTRF assay (labeled small molecule probe, anti-HIS detection antibody); settings: 1 nM HIS-TGFβR1 T204D, probe at Kd, 1 hour at room temperature, eleven concentrations
I'd be grateful if you could share measured pIC50 for these entries.
The meaning of pIC50 here: minus log10 of the concentration in molar units.

Query block: Item CC(=O)Nc1cc(Nc2nc(-c3cccc(C)n3)nc3[nH]ccc23)ccn1 has what recorded pIC50?
Result block: 9.00

Query block: Repeat with COC(=O)Nc1cc(Nc2nc(-c3cccc(C(F)F)n3)nc3[nH]ccc23)ccn1
Result block: 9.12

Query block: Repeat with Cc1nc(-c2nc(Nc3ccncc3F)c3cc[nH]c3n2)ccc1F
Result block: 9.22

---

molecular target: HIS-TGFβR1 T204D (Homo sapiens (Human), UniProt P36897, T204D); experiment: TGFβR1 HIS T204D HTRF assay (labeled small molecule probe, anti-HIS detection antibody); details: 1 nM HIS-TGFβR1 T204D, probe at Kd, 1 hour at room temperature, eleven concentrations
Readout label: pIC50
The meaning of pIC50 here: minus log10 of the concentration in molar units.

Query block: Item O=C1CCCN1c1cc(Nc2nc(-c3cccc(C(F)F)n3)nc3[nH]ccc23)ccn1 has what recorded pIC50?
Result block: 8.24

Query block: Repeat with CC(=O)Nc1nccc(Nc2nc(-c3cccc(C(F)(F)F)n3)nc3[nH]ccc23)c1F
Result block: 8.77

Query block: Repeat with CC(=O)Nc1nccc(Nc2nc(-c3cccc(C(F)F)n3)nc3[nH]ccc23)c1F
Result block: 9.43

Query block: Repeat with CC(=O)Nc1cc(Nc2nc(-c3cccc(C(F)F)n3)nc3[nH]cc(C)c23)ccn1
Result block: 8.82

Query block: Repeat with CC(C)(C)CC(=O)Nc1cc(Nc2nc(-c3cccc(C(F)(F)F)n3)nc3[nH]ccc23)ccn1
Result block: 8.57

Query block: Repeat with CC(C)(O)CNCc1c[nH]c2nc(-c3cccc(C(F)F)n3)nc(Nc3ccncc3F)c12
Result block: 8.85

Query block: Repeat with COC(=O)Nc1cc(Nc2nc(-c3cccc(C(F)(F)F)n3)nc3[nH]ccc23)ccn1
Result block: 8.60

Query block: Repeat with CC(=O)Nc1cc(Nc2nc(-c3ccc(F)c(C)n3)nc3[nH]ccc23)c(F)cn1
Result block: 8.89
